target: Mu-type opioid receptor (Homo sapiens); conditions: at 1 µM
Sequence (P35372 whole entry): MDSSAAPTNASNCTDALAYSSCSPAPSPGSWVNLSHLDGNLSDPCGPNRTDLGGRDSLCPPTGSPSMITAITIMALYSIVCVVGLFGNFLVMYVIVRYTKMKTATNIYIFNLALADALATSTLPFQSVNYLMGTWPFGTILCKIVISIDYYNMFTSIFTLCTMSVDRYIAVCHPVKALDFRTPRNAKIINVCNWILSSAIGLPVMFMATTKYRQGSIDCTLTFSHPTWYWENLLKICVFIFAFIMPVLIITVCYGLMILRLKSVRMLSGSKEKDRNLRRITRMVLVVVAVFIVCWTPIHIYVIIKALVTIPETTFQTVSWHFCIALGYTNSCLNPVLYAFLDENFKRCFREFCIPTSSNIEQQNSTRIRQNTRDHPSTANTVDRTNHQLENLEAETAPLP
Description: Displacement of [3H]diprenorphine from human MOR expressed in African green monkey COS1 cell membranes at 1 uM incubated for 1 hr by scintillation counting method
readoutName: inhibition

Here is how some compounds turned out for inhibition.
> print(dat)
                                inputsmiles  readoutname  endpointresult
1  COC(=O)N1CC[C@]23c4c5ccc(O)c4O[C@H]2[C@@H](O)C=C[C@H]3[C@H]1C5   inhibition             16%
2  COC(=O)N1CC[C@]23c4c5ccc(OC)c4O[C@H]2[C@@H](OC)[C@H](O)C(=O)[C@H]3[C@H]1C5   inhibition              5%

Consider the record given below.
What does the data say about its inhibition? Entry: `COC(=O)N1CC[C@]23c4c5ccc(OC)c4O[C@H]2[C@@H](OC)C=C[C@H]3[C@H]1C5` 3%

* * *

target: Delta-type opioid receptor (Homo sapiens, UniProt P41143); assay: Displacement of [3H]diprenorphine from human DOR expressed in African green monkey COS1 cell membranes incubated for 1 hr by scintillation counting method
Sequence (P41143 whole entry): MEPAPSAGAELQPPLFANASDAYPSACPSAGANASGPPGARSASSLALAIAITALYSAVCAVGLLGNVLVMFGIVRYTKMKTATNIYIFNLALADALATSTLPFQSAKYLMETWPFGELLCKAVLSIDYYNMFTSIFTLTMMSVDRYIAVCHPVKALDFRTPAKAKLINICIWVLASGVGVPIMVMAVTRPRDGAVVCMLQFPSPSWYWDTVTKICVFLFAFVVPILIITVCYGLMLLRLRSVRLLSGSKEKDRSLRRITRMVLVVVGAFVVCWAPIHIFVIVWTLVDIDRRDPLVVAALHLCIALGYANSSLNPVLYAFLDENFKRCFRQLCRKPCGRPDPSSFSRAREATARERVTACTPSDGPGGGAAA
Ki overview

> print(dat)
                                inputsmiles   endpointresult
1  COC(=O)N1CC[C@]23c4c5ccc(O)c4O[C@H]2[C@@H](O)C=C[C@H]3[C@H]1C5  1.69 to 2.63 µM

Can you share its Ki? I mean this molecule: `COC(=O)N1CC[C@]23c4c5ccc(O)c4O[C@H]2[C@@H](O)[C@H](O)C(=O)[C@H]3[C@H]1C5` 1.13 to 1.83 µM
